- target-or-test-system: RNA 5'-monophosphate methyltransferase (Homo sapiens, UniProt Q7Z5W3)
- Sequence (Q7Z5W3 whole entry): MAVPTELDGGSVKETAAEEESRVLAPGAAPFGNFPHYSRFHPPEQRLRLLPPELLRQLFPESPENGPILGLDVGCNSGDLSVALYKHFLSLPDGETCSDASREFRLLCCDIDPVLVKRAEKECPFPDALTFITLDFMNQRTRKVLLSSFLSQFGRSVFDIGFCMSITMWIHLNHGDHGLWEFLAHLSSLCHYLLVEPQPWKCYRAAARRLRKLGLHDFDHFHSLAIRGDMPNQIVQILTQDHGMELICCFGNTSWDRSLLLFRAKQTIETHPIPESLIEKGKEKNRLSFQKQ
- run-description: Binding affinity towards N-terminal ePL-tagged BCDIN3D (unknown origin) transfected in human A549 cells preincubated for 1 hr and measured by InCellPulse thermal stability assay
- Type: cell-based
pIC50: −log10 of the molar value.
observation-type: pIC50

[a] Cn1ncc2c(NC34CC(C3)C4)nc(NCC(N)c3ccccc3)nc21 (stereo not given)
[b] Cn1ncc2c(NCC3CC(C(F)(F)F)C3)nc(NC[C@H](N)c3ccccc3)nc21 (stereo not given in full)
[c] COc1cc(Nc2nc(NCC3(N)CC3)nc3c2cnn3C)cc(OC)c1
[d] Cn1ncc2c(Nc3ccc(C(F)(F)F)nc3)nc(NC[C@@](C)(N)c3ccccc3)nc21
[e] CNc1nc(NC[C@](C)(N)c2ccccc2)nc2c1cnn2C
Rank by decreasing pIC50 the items listed here. Your task in answering is to list the labels in the requested order.
b, d, a, c, e
(b: 7.47, d: 6.88, a: 6.05, c: 5.52, e: 4.97)
